Molecular target: rat GluN1/GluN2B (Rattus norvegicus, UniProt P35439+Q00960)
Construct: expressed in transfected cells; host or cells: Xenopus laevis oocytes (cRNA injection, GluN1/GluN2 ratio 1:2)
Sequence (Q00960 27-1482, other chains not shown): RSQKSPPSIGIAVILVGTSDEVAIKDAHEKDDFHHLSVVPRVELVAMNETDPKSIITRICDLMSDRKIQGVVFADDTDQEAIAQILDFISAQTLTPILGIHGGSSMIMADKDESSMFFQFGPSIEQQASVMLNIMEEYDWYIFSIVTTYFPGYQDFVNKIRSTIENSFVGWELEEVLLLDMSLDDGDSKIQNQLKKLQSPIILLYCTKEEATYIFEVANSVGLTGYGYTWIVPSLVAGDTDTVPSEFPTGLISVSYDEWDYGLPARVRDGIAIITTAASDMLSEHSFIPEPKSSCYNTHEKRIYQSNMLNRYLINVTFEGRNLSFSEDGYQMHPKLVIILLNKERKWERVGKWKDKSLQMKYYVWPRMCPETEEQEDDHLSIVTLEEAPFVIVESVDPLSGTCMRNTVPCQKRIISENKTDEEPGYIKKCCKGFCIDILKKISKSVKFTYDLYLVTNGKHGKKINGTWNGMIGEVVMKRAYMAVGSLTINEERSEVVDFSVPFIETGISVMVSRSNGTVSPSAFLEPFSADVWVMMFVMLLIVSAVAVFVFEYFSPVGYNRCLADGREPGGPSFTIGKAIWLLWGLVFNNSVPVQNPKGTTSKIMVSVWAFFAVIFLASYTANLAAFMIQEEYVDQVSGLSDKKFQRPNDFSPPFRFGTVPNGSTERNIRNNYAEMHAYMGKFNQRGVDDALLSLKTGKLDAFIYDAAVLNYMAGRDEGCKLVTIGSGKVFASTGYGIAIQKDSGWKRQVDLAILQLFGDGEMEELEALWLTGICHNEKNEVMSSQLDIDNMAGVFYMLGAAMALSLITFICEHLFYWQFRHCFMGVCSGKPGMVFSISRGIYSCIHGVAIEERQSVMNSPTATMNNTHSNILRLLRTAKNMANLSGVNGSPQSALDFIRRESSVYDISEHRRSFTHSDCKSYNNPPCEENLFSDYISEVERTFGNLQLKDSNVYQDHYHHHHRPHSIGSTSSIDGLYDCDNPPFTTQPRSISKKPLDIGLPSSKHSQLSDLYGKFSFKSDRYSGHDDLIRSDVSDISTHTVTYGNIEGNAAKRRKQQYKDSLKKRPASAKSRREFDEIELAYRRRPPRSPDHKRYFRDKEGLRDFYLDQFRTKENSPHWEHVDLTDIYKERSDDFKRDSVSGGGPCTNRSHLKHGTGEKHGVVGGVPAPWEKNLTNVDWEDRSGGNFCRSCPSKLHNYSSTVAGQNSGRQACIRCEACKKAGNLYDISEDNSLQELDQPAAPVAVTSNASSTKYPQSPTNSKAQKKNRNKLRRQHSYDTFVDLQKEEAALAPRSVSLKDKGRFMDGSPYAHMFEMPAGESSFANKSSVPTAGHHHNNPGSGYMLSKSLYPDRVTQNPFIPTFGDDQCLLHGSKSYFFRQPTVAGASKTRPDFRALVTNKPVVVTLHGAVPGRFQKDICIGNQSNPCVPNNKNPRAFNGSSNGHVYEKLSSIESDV
Experiment: Two-electrode voltage-clamp recording in Xenopus laevis oocytes expressing recombinant rat GluN1/GluN2B
Format: cell-based
Details: Tables 1 and 2; read-out: IC50 (μM) [95% Confidence Interval] GluN2B
Observable: IC50 (µM)

Example entries and their recorded answers appear below.
O=C(O)CC(F)(F)C(=O)N1N=C(c2c(-c3ccc(Br)cc3)c3ccsc3[nH]c2=O)CC1c1ccc(Cl)cc1 (stereo not shown)	19
Cc1[nH]c(=O)c(C2=NN(C(=O)C(F)(F)CC(=O)O)C(c3ccc(Cl)cc3)C2)c(-c2ccc(Cl)cc2)c1C (stereo not shown)	47

a. O=C(O)CC(F)(F)C(=O)N1N=C(c2c(-c3ccc(Cl)cc3)c3cccnc3[nH]c2=O)CC1c1ccc(Cl)cc1 (stereo not shown)
b. Cc1cc(-c2ccc(Cl)cc2)c(C2=NN(C(=O)C(F)(F)CC(=O)O)C(c3ccc(Cl)cc3)C2)c(=O)[nH]1 (stereo not shown)
Which value of IC50 is greater, the one for a or the one for b ? The response must carry the label of the picked entry.
a
(a: 67 µM, b: 41 µM)

----------
Target: rat GluN1/GluN2A (Rattus norvegicus, UniProt P35439+Q00959)
Construct: expressed in transfected cells; host or cells: Xenopus laevis oocytes (cRNA injection, GluN1/GluN2 ratio 1:2)
Sequence (Q00959 23-1464, other chains not shown): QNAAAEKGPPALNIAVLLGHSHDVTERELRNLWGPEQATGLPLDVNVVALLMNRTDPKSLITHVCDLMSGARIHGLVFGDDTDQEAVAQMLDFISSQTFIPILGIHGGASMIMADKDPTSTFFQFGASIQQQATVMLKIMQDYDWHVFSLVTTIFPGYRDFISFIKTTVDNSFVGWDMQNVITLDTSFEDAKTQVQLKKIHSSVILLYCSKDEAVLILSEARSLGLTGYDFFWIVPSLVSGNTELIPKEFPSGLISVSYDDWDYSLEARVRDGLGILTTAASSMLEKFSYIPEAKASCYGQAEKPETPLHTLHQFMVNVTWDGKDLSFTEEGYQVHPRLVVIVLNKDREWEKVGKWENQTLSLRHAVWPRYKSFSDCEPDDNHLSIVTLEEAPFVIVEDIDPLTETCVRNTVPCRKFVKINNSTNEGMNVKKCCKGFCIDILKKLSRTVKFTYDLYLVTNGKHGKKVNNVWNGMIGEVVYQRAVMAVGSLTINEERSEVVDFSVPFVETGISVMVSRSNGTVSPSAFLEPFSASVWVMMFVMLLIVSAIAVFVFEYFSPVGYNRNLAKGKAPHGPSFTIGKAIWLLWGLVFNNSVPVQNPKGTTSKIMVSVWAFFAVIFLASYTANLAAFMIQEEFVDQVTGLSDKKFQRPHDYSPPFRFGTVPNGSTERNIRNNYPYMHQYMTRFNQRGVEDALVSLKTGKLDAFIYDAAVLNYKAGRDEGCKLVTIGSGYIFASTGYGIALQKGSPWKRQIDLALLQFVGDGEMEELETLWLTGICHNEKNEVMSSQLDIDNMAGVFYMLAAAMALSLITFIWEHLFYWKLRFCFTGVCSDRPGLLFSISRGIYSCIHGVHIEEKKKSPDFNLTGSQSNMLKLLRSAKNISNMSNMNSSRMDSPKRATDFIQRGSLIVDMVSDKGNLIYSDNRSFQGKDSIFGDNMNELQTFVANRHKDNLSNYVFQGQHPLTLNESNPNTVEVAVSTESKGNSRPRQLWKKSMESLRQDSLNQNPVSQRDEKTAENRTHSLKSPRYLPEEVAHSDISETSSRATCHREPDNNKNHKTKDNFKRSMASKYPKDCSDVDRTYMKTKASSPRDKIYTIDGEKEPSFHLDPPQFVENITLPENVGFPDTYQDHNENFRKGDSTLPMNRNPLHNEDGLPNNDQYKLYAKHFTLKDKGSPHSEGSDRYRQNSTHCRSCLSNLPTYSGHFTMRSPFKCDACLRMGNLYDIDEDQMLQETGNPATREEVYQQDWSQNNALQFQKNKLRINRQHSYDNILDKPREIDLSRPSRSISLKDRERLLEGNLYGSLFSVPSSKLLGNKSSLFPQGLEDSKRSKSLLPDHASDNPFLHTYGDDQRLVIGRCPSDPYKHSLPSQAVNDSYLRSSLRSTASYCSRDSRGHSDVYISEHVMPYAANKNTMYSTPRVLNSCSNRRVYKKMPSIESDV
Test: Two-electrode voltage-clamp recording in Xenopus laevis oocytes expressing recombinant rat GluN1/GluN2A
Type: cell-based
Conditions: 30 μM test compound; current ratio, oocytes; read-out: I30 μM/Icontrol (mean ± SEM, %) GluN2A
Observable: remaining activity at 30 µM (%)

O=C(O)CC(F)(F)C(=O)N1N=C(c2c(-c3ccc(Cl)cc3)c3ccsc3[nH]c2=O)CC1c1ccc(Cl)cc1 (stereo not shown) [57(b)]	86
Cc1[nH]c(=O)c(C2=NN(C(=O)C(F)(F)CC(=O)O)C(c3ccc(Cl)cc3)C2)c(-c2ccc(Cl)cc2)c1C (stereo not shown) [Compound 56]	71
O=C(O)CC(F)(F)C(=O)N1N=C(c2cnccc2-c2ccccc2)CC1c1ccc(Cl)cc1 (stereo not shown) [Compound 15]	98
O=C(O)CC(F)(F)C(=O)N1N=C(c2c(-c3ccc(Cl)cc3)cc[nH]c2=O)CC1c1ccc(Cl)cc1 (stereo not shown) [Compound 28]	104

P. Cc1cc(-c2ccc(Cl)cc2)c(C2=NN(C(=O)C(F)(F)CC(=O)O)C(c3ccc(Cl)cc3)C2)cn1 (stereo not shown) [Compound 73]
Q. O=C(O)CC(F)(F)C(=O)N1N=C(c2c(-c3ccc(Br)cc3)c3ccsc3[nH]c2=O)CC1c1ccc(Cl)cc1 (stereo not shown) [57(a)]
R. O=C(CCc1nnn[nH]1)N1N=C(c2c(-c3ccc(Cl)cc3)c3ccccc3[nH]c2=O)CC1c1ccc(Cl)cc1 (stereo not shown) [Compound 109]
Order the 3 molecules from highest to lowest remaining activity at 30 µM. A complete answer lists every label in the requested sequence.
P, Q, R

----------
Target: rat GluN1/GluN2C (Rattus norvegicus, UniProt P35439+Q00961)
Construct: expressed in transfected cells; host or cells: Xenopus laevis oocytes (cRNA injection, GluN1/GluN2 ratio 1:2)
Sequence (Q00961 20-1237, other chains not shown): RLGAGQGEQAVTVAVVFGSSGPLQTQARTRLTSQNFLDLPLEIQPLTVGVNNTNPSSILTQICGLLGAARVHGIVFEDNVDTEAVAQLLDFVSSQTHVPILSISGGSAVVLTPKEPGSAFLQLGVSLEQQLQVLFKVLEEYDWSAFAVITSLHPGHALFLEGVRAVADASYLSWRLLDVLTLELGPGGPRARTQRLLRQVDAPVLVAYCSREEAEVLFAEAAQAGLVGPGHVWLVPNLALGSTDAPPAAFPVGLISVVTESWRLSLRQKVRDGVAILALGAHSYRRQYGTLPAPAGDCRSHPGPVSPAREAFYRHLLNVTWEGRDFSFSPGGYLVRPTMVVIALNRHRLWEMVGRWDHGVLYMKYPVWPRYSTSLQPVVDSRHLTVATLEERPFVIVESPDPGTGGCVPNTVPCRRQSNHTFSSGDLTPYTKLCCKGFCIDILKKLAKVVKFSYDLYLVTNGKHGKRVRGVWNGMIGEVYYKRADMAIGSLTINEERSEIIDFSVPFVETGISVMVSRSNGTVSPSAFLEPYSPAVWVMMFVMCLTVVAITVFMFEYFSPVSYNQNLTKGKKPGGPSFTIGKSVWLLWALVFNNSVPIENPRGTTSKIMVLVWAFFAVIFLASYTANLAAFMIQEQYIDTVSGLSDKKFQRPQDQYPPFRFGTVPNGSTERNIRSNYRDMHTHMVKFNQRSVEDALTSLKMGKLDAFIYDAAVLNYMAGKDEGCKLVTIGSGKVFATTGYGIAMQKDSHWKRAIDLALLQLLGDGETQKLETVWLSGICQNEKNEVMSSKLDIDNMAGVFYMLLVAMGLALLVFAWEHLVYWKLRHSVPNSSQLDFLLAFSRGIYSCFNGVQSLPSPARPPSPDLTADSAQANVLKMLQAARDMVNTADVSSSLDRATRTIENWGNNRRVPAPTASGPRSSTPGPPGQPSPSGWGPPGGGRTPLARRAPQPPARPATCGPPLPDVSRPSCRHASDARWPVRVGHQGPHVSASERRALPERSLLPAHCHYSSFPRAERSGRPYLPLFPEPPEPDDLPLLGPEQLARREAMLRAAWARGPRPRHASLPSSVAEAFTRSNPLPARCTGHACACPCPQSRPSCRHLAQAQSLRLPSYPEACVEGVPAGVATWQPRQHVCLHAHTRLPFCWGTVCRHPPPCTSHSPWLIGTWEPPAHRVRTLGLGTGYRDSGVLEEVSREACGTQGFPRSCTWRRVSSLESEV
Experiment: Two-electrode voltage-clamp recording in Xenopus laevis oocytes expressing recombinant rat GluN1/GluN2C
Type: cell-based
Details: Tables 1 and 2; read-out: IC50 (μM) [95% Confidence Interval] GluN2C
Observable: IC50 (µM)

O=C(O)CC(F)(F)C(=O)N1N=C(c2c(-c3ccc(Br)cc3)c3ccsc3[nH]c2=O)CC1c1ccc(Cl)cc1 (centres unmarked)	0.56
Cc1[nH]c(=O)c(C2=NN(C(=O)C(F)(F)CC(=O)O)C(c3ccc(Cl)cc3)C2)c(-c2ccc(Cl)cc2)c1C (centres unmarked)	1.9
Cc1cc(-c2ccc(Cl)cc2)c(C2=NN(C(=O)C(F)(F)CC(=O)O)C(c3ccc(Cl)cc3)C2)c(=O)[nH]1 (centres unmarked)	14
O=C(O)CC(F)(F)C(=O)N1N=C(c2c(-c3ccc(Cl)cc3)c3ccncc3[nH]c2=O)CC1c1ccc(Cl)cc1 (centres unmarked)	2.1
O=C(O)CC(F)(F)C(=O)N1N=C(c2c(-c3ccc(Cl)cc3)c3ccsc3[nH]c2=O)CC1c1ccc(Cl)cc1 (centres unmarked)	0.32

I. O=C(O)CC(F)(F)C(=O)N1N=C(c2c(-c3ccc(Cl)cc3)c3cccnc3[nH]c2=O)CC1c1ccc(Cl)cc1 (centres unmarked)
II. O=C(O)CC(F)(F)C(=O)N1N=C(c2cnccc2-c2ccc(Cl)cc2)CC1c1ccc(Cl)cc1 (centres unmarked)
Hey, between I and II which has a smaller measured IC50? The response must carry the label of the picked entry.
I
(I: 2.1 µM, II: 15 µM)
